target_desc: T1, cynoNectin4 antigen (cynomolgus (cyno), UniProt A0A2K5WES1 32-349)
T1 construct: construct not described; also called cynomolgus (cyno) Nectin-4
T1 sequence: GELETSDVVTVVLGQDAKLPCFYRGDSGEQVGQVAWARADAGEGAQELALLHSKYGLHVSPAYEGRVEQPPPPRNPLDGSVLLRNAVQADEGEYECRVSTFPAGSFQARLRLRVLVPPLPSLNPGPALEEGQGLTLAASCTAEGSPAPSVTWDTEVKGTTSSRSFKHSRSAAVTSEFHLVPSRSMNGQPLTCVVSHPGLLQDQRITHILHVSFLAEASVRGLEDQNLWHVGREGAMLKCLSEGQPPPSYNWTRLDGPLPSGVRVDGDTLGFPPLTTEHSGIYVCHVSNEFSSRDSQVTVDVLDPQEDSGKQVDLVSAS
assay_name: ELISA, coated antigen, PSB pH 6.0
parameter_measured: EC50 (µg/mL)
Give the value, in units of µg/mL, as a plain number.

The binder identified as BAP-143-06-24-16 (antibody, V domains shown, Used as a conjugate with a linker payload (CAB ADC)) VH: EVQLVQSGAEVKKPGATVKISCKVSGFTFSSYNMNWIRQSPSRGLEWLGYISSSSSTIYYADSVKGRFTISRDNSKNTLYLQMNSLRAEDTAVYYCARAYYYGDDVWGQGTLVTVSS VL: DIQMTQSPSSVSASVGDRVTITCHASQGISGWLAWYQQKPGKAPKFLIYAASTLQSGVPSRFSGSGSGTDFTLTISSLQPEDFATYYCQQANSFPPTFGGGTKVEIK registered its EC50 at 0.0261

The binder identified as BAP-143-wildtype (antibody, V domains shown, 150 kDa used in SPR; also called BAP143-00-00; benchmark (BM)) VH: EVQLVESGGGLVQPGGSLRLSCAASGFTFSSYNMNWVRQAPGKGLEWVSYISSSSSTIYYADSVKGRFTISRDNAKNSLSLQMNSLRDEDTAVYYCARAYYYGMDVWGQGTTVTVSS VL: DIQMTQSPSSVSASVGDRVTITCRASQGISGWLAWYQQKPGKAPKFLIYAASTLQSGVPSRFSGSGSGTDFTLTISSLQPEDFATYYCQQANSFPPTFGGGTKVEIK registered its EC50 at 0.0146

The binder identified as BAP-143-07-03-12 (antibody, V domains shown, Used as a conjugate with a linker payload (CAB ADC)) VH: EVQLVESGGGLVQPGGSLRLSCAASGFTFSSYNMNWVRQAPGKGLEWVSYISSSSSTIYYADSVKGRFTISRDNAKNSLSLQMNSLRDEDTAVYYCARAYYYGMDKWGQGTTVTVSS VL: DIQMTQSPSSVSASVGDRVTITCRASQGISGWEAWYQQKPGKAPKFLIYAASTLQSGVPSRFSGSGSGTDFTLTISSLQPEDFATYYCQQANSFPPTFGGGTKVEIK registered its EC50 at 0.0239

The binder identified as BAP-143-06-33-16 (antibody, V domains shown, Used as a conjugate with a linker payload (CAB ADC)) VH: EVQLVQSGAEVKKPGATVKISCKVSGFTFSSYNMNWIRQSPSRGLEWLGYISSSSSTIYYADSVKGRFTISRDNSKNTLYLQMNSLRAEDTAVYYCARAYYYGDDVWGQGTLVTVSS VL: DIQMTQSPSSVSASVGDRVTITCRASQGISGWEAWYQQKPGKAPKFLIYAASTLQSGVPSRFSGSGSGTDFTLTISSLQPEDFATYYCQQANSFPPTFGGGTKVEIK registered its EC50 at 0.0384
